test system: BT-549; experiment: NCI tumour cell line growth inhibition, 48 h
Activity calls are given as the source filed them. Cut-off read from the data, not from the text of the source: active = GI50 up to about 1.1 µM and inactive = higher.
quantity-name: GI50

[[record]]
compound = "COc1ccc(-n2c(N)c(C#N)c(C#N)c2-c2cccc([N+](=O)[O-])c2)cc1"
target_or_test_system = "BT-549"
quantity_name = "GI50"
reported_result = "> 100 µM (inactive)"

[[record]]
compound = "COc1cc(S(=O)(=O)Nc2ccc(-c3csc(N4C(=O)C(Cl)C4c4ccccc4)n3)cc2)ccc1Cl (stereo unspecified)"
target_or_test_system = "BT-549"
quantity_name = "GI50"
reported_result = "26.9 µM (inactive)"

[[record]]
compound = "CSC(SC)=C(C#N)C(=O)Nc1cccc(Cl)c1"
target_or_test_system = "BT-549"
quantity_name = "GI50"
reported_result = "36.6 µM (inactive)"

[[record]]
compound = "COc1cc2c(cc1OC)C(=O)N(c1ccc(O)cc1)C2=O"
target_or_test_system = "BT-549"
quantity_name = "GI50"
reported_result = "> 100 µM (inactive)"

[[record]]
compound = "O=S(=O)(c1ccc2ccccc2c1)N1CCN(S(=O)(=O)c2ccc3ccccc3c2)CC1"
target_or_test_system = "BT-549"
quantity_name = "GI50"
reported_result = "> 100 µM (inactive)"

[[record]]
compound = "CCC1(CC)N=C(C(F)(F)F)c2cc(C(=O)C(F)(F)F)c3ccccc3c2N1"
target_or_test_system = "BT-549"
quantity_name = "GI50"
reported_result = "5.87 µM (inactive)"

[[record]]
compound = "CN[C@H]1CC[C@]23C[C@]24CC[C@]2(C)[C@@H]([C@H](C)N(C)C)CC[C@@]2(C)[C@@H]4CC[C@H]3C1(C)C"
target_or_test_system = "BT-549"
quantity_name = "GI50"
reported_result = "12.7 µM (inactive)"

[[record]]
compound = "CCCCCCCCCCNC1CC(OC2CC(O)(C(O)CO)Cc3c(O)c4c(c(O)c32)C(=O)c2c(OC)cccc2C4=O)OC(C)C1O (stereo unspecified)"
target_or_test_system = "BT-549"
quantity_name = "GI50"
reported_result = "1.7 µM (inactive)"

[[record]]
compound = "C=C([C@@]1(O)C[C@H]2[C@H](CCC2(OC)OC)[C@@H]2c3ccccc3O[C@@H]21)[Si](C)(C)C"
target_or_test_system = "BT-549"
quantity_name = "GI50"
reported_result = "> 100 µM (inactive)"

[[record]]
compound = "O=C(O)c1ccccc1-c1ccccc1C(=O)Nc1ccc2c(c1)nc(O)c1ccccc12"
target_or_test_system = "BT-549"
quantity_name = "GI50"
reported_result = "52.4 µM (inactive)"

[[record]]
compound = "O=C(c1c(F)c(F)c(F)c(F)c1F)N1CCN(C(=O)c2c(F)c(F)c(F)c(F)c2F)C1=S"
target_or_test_system = "BT-549"
quantity_name = "GI50"
reported_result = "13.6 µM (inactive)"


====

tested on: UACC-62; test: NCI tumour cell line growth inhibition, 48 h
Calls of active or inactive are those of the source. Rule as the data show it: active = GI50 up to about 1.1 µM and inactive = higher.
# GI50 listing for each entry below
quantity-name: GI50

[[record]]
compound = "CN(C)CCNC(=O)c1cccc2c1nc(-c1ccccc1)c1ccccc12"
target_or_test_system = "UACC-62"
reported_result = "11.9 µM (inactive)"

[[record]]
compound = "CC(C)=CC[C@]12CCN(C)[C@H]1N(S(=O)(=O)c1ccccc1)c1ccccc12"
target_or_test_system = "UACC-62"
reported_result = "> 35.6 µM (inactive)"

[[record]]
compound = "Cc1nn2c(N)cc(=O)nc2nc1/C=C/c1ccc(N(C)C)cc1"
target_or_test_system = "UACC-62"
reported_result = "5.02 µM (inactive)"

[[record]]
compound = "CCN(CC)CCCNC(=O)c1ccccc1Nc1c(Cl)cccc1Cl"
target_or_test_system = "UACC-62"
reported_result = "12 µM (inactive)"

[[record]]
compound = "COc1cc(C2=N/C(=C/c3cccs3)C(=O)O2)cc(OC)c1OC"
target_or_test_system = "UACC-62"
reported_result = "> 100 µM (inactive)"

[[record]]
compound = "CCOC(=O)c1c2c(n3ccccc13)C(=O)c1ccccc1C2=O"
target_or_test_system = "UACC-62"
reported_result = "67.9 µM (inactive)"

[[record]]
compound = "N#CNC(=N)NC(=O)/C=C/C=C/c1ccc(Cl)cc1"
target_or_test_system = "UACC-62"
reported_result = "> 100 µM (inactive)"

[[record]]
compound = "CC(C)(CN1CCCCC1)C(=O)/C=C/c1ccccc1"
target_or_test_system = "UACC-62"
reported_result = "18.9 µM (inactive)"

[[record]]
compound = "C=CC[P@]1(=O)O[C@H](c2ccccc2)[C@H](C)N1C"
target_or_test_system = "UACC-62"
reported_result = "> 100 µM (inactive)"

[[record]]
compound = "O=C(CNc1ccc(Cl)cc1Cl)Nn1c(-c2ccccc2)nc2ccccc2c1=O"
target_or_test_system = "UACC-62"
reported_result = "3.34 µM (inactive)"

[[record]]
compound = "O=C1CSC2(CC(/C=C/C=C/c3ccccc3)=NN2c2cccc(S(=O)(=O)O)c2)N1c1nc2ccccc2s1 (configuration not stated)"
target_or_test_system = "UACC-62"
reported_result = "35.2 µM (inactive)"

[[record]]
compound = "O=C1C(SCCO)=C(SCCO)C(=O)c2ccccc21"
target_or_test_system = "UACC-62"
reported_result = "1.44 µM (inactive)"

[[record]]
compound = "OCCO[P+]1(OCCO)n2c3ccc2C(c2ccccc2)=C2C=CC(=N2)C(c2ccccc2)=c2ccc(n21)=C(c1ccccc1)C1=NC(=C3c2ccccc2)C=C1"
target_or_test_system = "UACC-62"
reported_result = "0.0303 µM (active)"

[[record]]
compound = "CC(C)OC(=O)/C=C/C(=O)O/C=C/[N+](=O)[O-]"
target_or_test_system = "UACC-62"
reported_result = "21.3 µM (inactive)"

[[record]]
compound = "CC(C)(C)c1ccc(O)c(Br)c1"
target_or_test_system = "UACC-62"
reported_result = "95.9 µM (inactive)"

[[record]]
compound = "O=c1oc2cc(/N=C/c3ccccc3Cl)ccc2c2ccccc12"
target_or_test_system = "UACC-62"
reported_result = "40.7 µM (inactive)"

[[record]]
compound = "COc1c2ccoc2c(S(=O)(=O)Nc2ccc(Cl)cc2)c2oc(C)cc(=O)c12"
target_or_test_system = "UACC-62"
reported_result = "> 100 µM (inactive)"

[[record]]
compound = "O=c1sc2c(s1)SSSSS2"
target_or_test_system = "UACC-62"
reported_result = "35.2 µM (inactive)"

[[record]]
compound = "COc1cc(N(CCC#N)CCC#N)ccc1/C=N\\NC(=O)c1ccc(C)cc1"
target_or_test_system = "UACC-62"
reported_result = "> 100 µM (inactive)"

[[record]]
compound = "Cc1ccc([N+](=O)[O-])cc1S(=O)(=O)Nc1ccc(C2=NN(S(=O)(=O)c3cc([N+](=O)[O-])ccc3C)C(c3ccccc3)C2)cc1 (configuration not stated)"
target_or_test_system = "UACC-62"
reported_result = "16 µM (inactive)"

[[record]]
compound = "CCOC(=O)CNc1nnnn1C1OC(CO)C(O)C1O (configuration not stated)"
target_or_test_system = "UACC-62"
reported_result = "> 100 µM (inactive)"

[[record]]
compound = "COc1ccccc1NC(=O)CC(=O)NN"
target_or_test_system = "UACC-62"
reported_result = "> 100 µM (inactive)"


====

test system: SF-295; assay: NCI tumour cell line growth inhibition, 48 h
The source made the active and inactive calls. Cut-off read from the data, not from the text of the source: active = GI50 up to about 1.1 µM and inactive = higher.
Outcome codes: label 1 = active, label 0 = inactive

[[record]]
molecule = "COc1ccc(CNc2nc3ccccc3nc2-c2cccs2)cc1OC"
class_assignment = "label 0"

[[record]]
molecule = "O=S(=O)(CC(O)C(Cl)(Cl)Cl)NNc1ccccc1 (stereo not given)"
class_assignment = "label 0"

[[record]]
molecule = "COC(=O)/C(=C1\\OC(=O)C(c2ccc(Cl)cc2)=C1O)c1ccc(Cl)cc1"
class_assignment = "label 0"

[[record]]
molecule = "O=C(O)c1ccccc1-c1ccccc1C(=O)Nc1ccc2c(c1)nc(O)c1ccccc12"
class_assignment = "label 0"

[[record]]
molecule = "O=C(CNc1ccc(Cl)cc1Cl)Nn1c(-c2ccccc2)nc2ccccc2c1=O"
class_assignment = "label 0"

[[record]]
molecule = "COc1ccc(CC(CO)NC(=O)OCc2ccccc2)cc1Oc1ccc(CC(CO)NC(=O)OCc2ccccc2)cc1 (stereo not given)"
class_assignment = "label 0"

[[record]]
molecule = "COc1cc(O)c2c(O)c3c(c4c2c1[C@]1(C4)C(C)=CCCC1(C)C)[C@H](O)[C@@]1(O)CC(O)=C(C(N)=O)C(=O)[C@@]1(O)C3=O"
class_assignment = "label 1"

[[record]]
molecule = "COC(=O)C1C(OCc2ccccc2)C2CCC1(OC)C=C2C (stereo not given)"
class_assignment = "label 0"

[[record]]
molecule = "O=C1NC(O)c2cc3ccccc3cc2O1 (stereo not given)"
class_assignment = "label 0"

[[record]]
molecule = "C1CNCCN2CCCNCCN(C1)CC2"
class_assignment = "label 0"

[[record]]
molecule = "Nc1nc(N)nc(-c2ccccc2NS(=O)(=O)c2ccc([N+](=O)[O-])cc2)n1"
class_assignment = "label 0"

[[record]]
molecule = "O=C(NCCCN1CCN(CCCNC(=O)Nc2cccc3ccccc23)CC1)Nc1cccc2ccccc12"
class_assignment = "label 0"

[[record]]
molecule = "COc1cc2c(cc1OC)-c1c3cc(O)ccc3nn[n+]1CC2"
class_assignment = "label 0"

[[record]]
molecule = "O=Cc1c(-c2ccccc2)nc2ccccc2c1O"
class_assignment = "label 0"

[[record]]
molecule = "Cc1ccc(S(=O)(=O)n2cc(/C=C/C#N)c(/C=C/C#N)c2)cc1"
class_assignment = "label 0"

[[record]]
molecule = "CCCCCCCCCCNC1CC(OC2CC(O)(C(O)CO)Cc3c(O)c4c(c(O)c32)C(=O)c2c(OC)cccc2C4=O)OC(C)C1O (stereo not given)"
class_assignment = "label 0"

[[record]]
molecule = "O=C(C/C(CCC(=O)N(Cc1ccccc1)Cc1ccccc1)=N/Nc1ccc([N+](=O)[O-])cc1[N+](=O)[O-])c1ccccc1"
class_assignment = "label 0"

[[record]]
molecule = "CS(=O)(=O)c1ccc2nc(-c3ccc(O)cc3)sc2c1"
class_assignment = "label 0"

[[record]]
molecule = "CCCCCc1cc(CCCC)sc1-c1ccco1"
class_assignment = "label 0"

[[record]]
molecule = "Cc1ccc([N+](=O)[O-])cc1S(=O)(=O)Nc1ccc(C2=NN(S(=O)(=O)c3cc([N+](=O)[O-])ccc3C)C(c3ccccc3)C2)cc1 (stereo not given)"
class_assignment = "label 0"

